# TGT: S1-Ig (261-672) (SARS-CoV; human, UniProt P59594 261-672)
# METHOD: ELISA, coated S1-IgG 261-672
Documented Reactivity S1-IgG (ELISA OD) across a set of binders
ASSAY_METRIC: Reactivity S1-IgG (ELISA OD)

BINDER | ASSAY_METRIC | UNIT_DESCRIPTOR | ENDPOINT_RESULT
5D6 (antibody, V domains shown) VH: QVQLVQSGAEVKKPGASVKVSCKASGYTFTSYGISWVRQAPGQGLEWMGWISAYNGNTNYAQKLQGRVTMTTDTSTNTAYMELRSLRSDDTAVYYCAVGRYLDYWGQGTLVTVSS VL: DIQMTQSPSSLSASVGDRVTITCRASQDIRNDLGWYQQKPGKAPKRLIYAASSLQSGVPSRFSGSGSGTEFTLTISSLQPEDFATYYCLQYNSYPLTFGGGTKVEIK | Reactivity S1-IgG (ELISA OD) | OD | 0.355
5E4 (antibody, V domains shown) VH: QVHLVQSGAEVKKPGASVKVSCKASGYTFTGYYVHWVRQAPGQGLEWMGWINPNSGGTNYAQKFQGRVTMTRDTSISTAYMELSRLRSDDTAVYFCAGGRYLDYWGQGTLVTVSS VL: DIQMTQSPSSLSASVGDRVTITCRASQGIRNDLGWYQQKPGKAPKRLIYAASSLQSGVPSRFSGSGSGTEFTLTISSLQPEDFATYYCLQYNSYPITFGQGTRLEIK | Reactivity S1-IgG (ELISA OD) | OD | 0.298
6B1 (antibody, V domains shown) VH: QVQLVESGGGVVQPGTSLRLSCAASGFTFSSYGIHWVRQAPGKGLEWVAVIWYDGSNKFHADSVKGRFTISRDNSKNTLYLQMNSLRAEDTAVYYCARDPLGYCSSTSCSYFDYWGQGTLVTVSS VL: DIQMTQSPSSVSASVGDRVTITCRASQGISNWLAWYQQKPGKAPKLLIYAASSLQSGVPSRFSGSGSGTDFTLTISSLQPEDFATYYCQQANNFPLTFGGGTKVEIK | Reactivity S1-IgG (ELISA OD) | OD | 0.369
